system: parental HEK cells; assay: HEK parental Agonist Counterscreen Assay (non-transfected cells); format: cell-based; settings: HEK Agonist Activity section
metric: Lipophilic Efficiency (logP)
Answer as a number with no unit attached.

O=C(O)CC1CCCC1c1ccccc1 (stereo not shown); 1.80
CC1CC(C)CN(C(=O)C2C3C=CC4(CN(Cc5ccccc5Cl)C(=O)C24)O3)C1 (stereo not shown); 2.09

Quickly give me recorded Lipophilic Efficiency (logP) for O=C(NCCCn1ccnc1)c1cc2nc3c(c(C(F)(F)F)n2n1)CCc1ccccc1-3
1.38

Given the compound CCc1cc(C2=C/C(=C/c3c(OC)ccc4ccccc34)C(=O)O2)cc(OC)c1OC , write its reported Lipophilic Efficiency (logP).
0.71

Give the value of Lipophilic Efficiency (logP) reported for the following: COc1cc(OC)cc(C(=O)NNC(=O)CCc2ccccc2)c1
2.65

Return reported Lipophilic Efficiency (logP). Input compound: Cc1ccc(C(=O)NNC(=O)CSc2nnc(Cn3cnc4ccccc43)o2)cc1
3.14

Supply recorded Lipophilic Efficiency (logP) for O=C(CSCc1cccc2ccccc12)Nc1c[nH]c(=O)[nH]c1=O here.
3.55

For the compound CCCCC(O)CCNC(=O)C1CC(=O)N(CCc2ccc(C)cc2)C1 (stereo not shown) , give its reported Lipophilic Efficiency (logP).
2.54

###

molecular target: GPR139 (Homo sapiens); test: GPR139 Agonist titration / agonist counterscreen assay (calcium detection, HEK-GPR139 cells); format: cell-based; design: expressed in transfected cells; host or cells: HEK Aequorin cells, Maxcyte transient transfection; details: GPR139 Agonist Activity
metric: Lipophilic Efficiency (logD)
Just the number, please.

Cc1[nH]c(=O)[nH]c(=O)c1/C=N\NC(=O)CCc1ccc(OC(C)C)cc1; 4.74

// output Lipophilic Efficiency (logD); input CCC(=O)NNC(=O)C(C)Oc1ccc(Cl)cc1Cl (centres unmarked) ; system GPR139 (Homo sapiens)
3.90

Supply Lipophilic Efficiency (logD) measured with GPR139 (Homo sapiens) for NC1=NC(=O)/C(=C\c2ccc(Cl)cc2Cl)S1 .
3.32

Give reported Lipophilic Efficiency (logD) for O=C(Cn1ccc2ccccc21)NC1CCN(Cc2ccccc2)CC1 (GPR139 (Homo sapiens))
4.08

###

target: GPR139 (Homo sapiens); assay: GPR139 Agonist titration / agonist counterscreen assay (calcium detection, HEK-GPR139 cells); assay type: cell-based; set-up: expressed in transfected cells; host or cells: HEK Aequorin cells, Maxcyte transient transfection; conditions: GPR139 Agonist Activity; based on logP
metric: Lipophilic Efficiency (logP)
Respond using a number only.

Here is how some compounds turned out for Lipophilic Efficiency (logP).
CC1=NNC(=O)C1CC(=O)N/N=C/c1cccc2ccccc12 (stereo not drawn) [SR-01000080433]; 4.98
CC1CCC(NC(=O)CCC(=O)N2CCSc3ccccc32)CC1 (stereo not drawn) [SR-01000159110]; 5.19
O=C(CN1CCN(Cc2ccccc2Cl)C1=O)NC1CCCCCC1 [SR-01000125460]; 4.03

Provide GPR139 (Homo sapiens) Lipophilic Efficiency (logP) reading for O=C(CCCOc1ccc(Cl)cc1Cl)NNC(=O)Cc1ccc2c(c1)OCCO2 [SR-01000065653] .
4.05

Fill in Lipophilic Efficiency (logP) for Nc1c(Cl)c(Cl)nc(C(=O)OCC(=O)NCc2ccccc2)c1Cl [SR-01000073564] tested with GPR139 (Homo sapiens).
4.46

State Lipophilic Efficiency (logP) on GPR139 (Homo sapiens). Entry: Cc1cc(C)c2c(CC(=O)NNC(=O)COc3ccccc3)coc2c1 [SR-01000301649]
3.92

Report Lipophilic Efficiency (logP) from GPR139 (Homo sapiens) testing of Cc1ccc(Br)cc1S(=O)(=O)NCCC(=O)NCCc1sccc1C [SR-01000101329]
5.15

Write Lipophilic Efficiency (logP) of CCn1c(=O)c([N+](=O)[O-])c(NCCc2ccc(OC)cc2)c2ccccc21 [SR-01000918303] ; system used: GPR139 (Homo sapiens)
4.29

With GPR139 (Homo sapiens) as the test system, provide measured Lipophilic Efficiency (logP) for this compound: O=C(CN1CCCN(Cc2ccc(F)cc2Cl)C1=O)NC1CCCCCC1 [SR-01000146442]
4.80

System GPR139 (Homo sapiens). Read-out Lipophilic Efficiency (logP). Item COc1cc(OC)cc(-c2nnc(NC(=O)Cc3cccc4ccccc34)o2)c1 [SR-01000012205] . Report value.
4.05

Give Lipophilic Efficiency (logP) for this entry on GPR139 (Homo sapiens): O=C(NCCc1ccc(Cl)cc1)c1ccc(N2CC3CC(C2)c2cccc(=O)n2C3)c(NS(=O)(=O)c2ccc3c(c2)OCCO3)c1 (stereo not drawn) [SR-01000583473]
3.71

Give Lipophilic Efficiency (logP) only, for Cc1cccc(OCC(=O)NNC(=O)C(C)Oc2ccc(Cl)cc2Cl)c1 (stereo not drawn) [SR-01000318010] , using GPR139 (Homo sapiens) data.
3.28

###

Quick reference for pEC50 among some compounds
Target: GPR139 (Homo sapiens, UniProt Q6DWJ6)
Sequence (Q6DWJ6 1-353): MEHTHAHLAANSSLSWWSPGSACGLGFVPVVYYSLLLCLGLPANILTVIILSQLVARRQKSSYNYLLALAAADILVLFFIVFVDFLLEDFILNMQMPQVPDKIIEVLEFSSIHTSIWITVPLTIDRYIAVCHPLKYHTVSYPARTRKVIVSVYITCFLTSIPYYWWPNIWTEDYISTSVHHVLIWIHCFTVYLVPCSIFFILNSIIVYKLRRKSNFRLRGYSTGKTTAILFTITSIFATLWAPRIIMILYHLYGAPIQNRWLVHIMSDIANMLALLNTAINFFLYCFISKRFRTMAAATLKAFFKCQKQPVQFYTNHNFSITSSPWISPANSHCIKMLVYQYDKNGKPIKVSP
Assay: GPR139 Agonist titration / agonist counterscreen assay (calcium detection, HEK-GPR139 cells)
Type: cell-based
Parameters: expressed in transfected cells; host or cells: HEK Aequorin cells, Maxcyte transient transfection
Settings: GPR139 Agonist Activity; HEK-GPR139 cells; read-out: EC50
// pEC50 is dimensionless: -log10 of concentration (M)

Below, 3 compounds whose answers are already recorded.
O=C(Nc1ccc(-c2c[nH]cn2)cc1)C1COc2ccc(F)cc2C1 (centres unmarked) [SR-00000004710]; 6.32
CC1(c2ccc3c(c2)OCO3)NC(=O)N(CC(=O)NC2CCCC2)C1=O (centres unmarked) [SR-01000065547]; 6.33
Cc1cccc(CNC(=O)Nc2ccc(-c3cn[nH]c3)cc2)c1.O=C(O)C(F)(F)F [SR-00000005301]; 6.55

Give the value of pEC50 reported for the following: COc1ccc(CSc2nnc(-c3cccnc3)n2N)cc1 [SR-01000284323]
6.41

Quick one: give measured pEC50 for O=C(Cn1nnc2c1-c1ccccc1OC2)Nc1cccc(Cl)c1 [SR-01000135042]
6.40

In one line, give reported pEC50 of the entry O=C(NCCn1ccc2ccccc21)c1cccc(Cl)c1 [SR-01000124131] .
6.33

Return pEC50 for the following compound: CCOc1ccccc1NC(=O)CN1C(=O)NC(C)(c2ccc(Cl)cc2Cl)C1=O (centres unmarked) [SR-01000072797]
6.00

Please indicate pEC50 recorded for CCC(=O)NNC(=O)C(C)Oc1ccc(Cl)cc1Cl (centres unmarked) [SR-01000316982]
6.24

###

// reported EC50 per item
biological target: GPR139 (Homo sapiens); test: GPR139 Antagonist titration assay (calcium detection, HEK-GPR139 cells, vs EC80 of S-JNJ-63533054)

Cc1ccc(Oc2ccc(OCC(=O)N3C(C)CCCC3C)cc2)cc1 (stereo not drawn); > 4.5 µM
Cc1cc(C(F)(F)F)nc(SCC(=O)Nc2cccc(C(F)(F)F)c2)c1C#N; > 13.9 µM

// below: EC50 requested for another compound
Find EC50 for Cc1cccc(-n2ccnc2SCC(=O)Nc2cccc(C)c2C)c1 on GPR139 (Homo sapiens) and write it down.
> 1.6 µM

###

target: GPR139 (Homo sapiens, UniProt Q6DWJ6); experiment: GPR139 Agonist titration / agonist counterscreen assay (calcium detection, HEK-GPR139 cells); format: cell-based; parameters: expressed in transfected cells; host or cells: HEK Aequorin cells, Maxcyte transient transfection; details: GPR139 Agonist Activity; ligand efficiency
metric: Efficiency Ligand
Provide a numeric answer; units are not to be included.

Here is how some compounds turned out for Efficiency Ligand.
CCOc1ccc(C(=O)NCCc2ccc(F)cc2)cc1OCC [SR-01000243797]; 0.39
C=C(C)CN(CC)C(=O)CN1C(=O)NC(C)(c2ccc3ccccc3c2)C1=O (centres unmarked) [SR-01000048841]; 0.41
Cn1cnnc1SCc1ccc(F)c2ccccc12 [SR-01000524029]; 0.57
Cc1ccc(SCC(=O)Nc2nnc(-c3ccccc3Cl)o2)cc1 [SR-01000021416]; 0.44
CCCc1cc(=O)n2[nH]c(NCc3ccccc3F)nc2n1 [SR-01000100493]; 0.43

Give me measured Efficiency Ligand, please, for this compound: Cc1ccccc1SCC(=O)NNC(=O)c1ccc(Br)s1 [SR-01000069352]
0.44
